# Assay System: Mitogen-activated protein kinase kinase kinase 7 (Homo sapiens) (UniProt O43318)
# Measurement Description: Inhibition of TAK1 in RA patient-derived synovial fibroblasts assessed as inhibition of poly(I:C)-induced cytokine secretion at 3 uM preincubated for 3 hrs followed by poly(I:C) stimulation measured after 18 hrs by sandwich immunoassay
Calls of active or inactive are those of the source. No cut-off for these calls is given here.
The categories you may choose from are 1 = active, -1 = inactive

See these solved cases before continuing.
Sample Smiles: CCC(=O)Nc1ccccc1Oc1nc(Nc2cnn(CCOC)c2)ncc1Cl
Assay System: Mitogen-activated protein kinase kinase kinase 7 (Homo sapiens) (UniProt O43318)
Class Assignment: -1

Sample Smiles: CCC(=O)Nc1ccccc1Oc1nc(Nc2ccc(N3CCN(C)CC3)cc2)ncc1Cl
Assay System: Mitogen-activated protein kinase kinase kinase 7 (Homo sapiens) (UniProt O43318)
Class Assignment: -1

Sample Smiles: C=CC(=O)Nc1ccccc1Oc1nc(Nc2ccc(N3CCN(C)CC3)cc2)ncc1Cl
Assay System: Mitogen-activated protein kinase kinase kinase 7 (Homo sapiens) (UniProt O43318)
Class Assignment: 1

Query: Kindly provide the recorded test outcome for the following compound: `C=CC(=O)Nc1ccccc1Oc1nc(Nc2cnn(CCOC)c2)ncc1Cl`
Result: 1

====

# Assay System: Mitogen-activated protein kinase kinase kinase 7 (Homo sapiens)
# Measurement Description: Inhibition of TAK1 in RA patient-derived synovial fibroblasts assessed as inhibition of TNFalpha-induced cytokine secretion at 3 uM preincubated for 3 hrs followed by TNFalpha stimulation measured after 18 hrs by sandwich immunoassay
Active and inactive are the calls of the source. The calls are words filed in the database; no cut-off is given here.
The categories you may choose from are T for active, F for inactive

Sample Smiles: CCC(=O)Nc1ccccc1Oc1nc(Nc2ccc(N3CCN(C)CC3)cc2)ncc1Cl
Class Assignment: F
//
Sample Smiles: C=CC(=O)Nc1ccccc1Oc1nc(Nc2ccc(N3CCN(C)CC3)cc2)ncc1Cl
Class Assignment: T
//
Sample Smiles: CCC(=O)Nc1ccccc1Oc1nc(Nc2cnn(CCOC)c2)ncc1Cl
Class Assignment: F

Attention now shifts to the item below.
Query: Kindly provide the recorded test outcome for the following molecule: `C=CC(=O)Nc1ccccc1Oc1nc(Nc2cnn(CCOC)c2)ncc1Cl`
Result: T

====

# Measurement Description: Increase in secretion of basic-FGF in TNFalpha activated RA patient-derived synovial fibroblasts at 0.6 to 3 uM preincubated for 3 hrs followed by TNFalpha stimulation measured after 18 hrs by sandwich immunoassay
# Measurement Setup: human
Experimental Readout: Activity

Below are worked cases with known answers.
Sample Smiles: C=CC(=O)Nc1ccccc1Nc1nc(Nc2ccc(N3CCN(C)CC3)cc2)ncc1Cl
Activity: Toxic
//
Sample Smiles: C=CC(=O)Nc1ccccc1Oc1nc(Nc2cnn(CCOC)c2)ncc1Cl
Activity: Non-Toxic
//
Sample Smiles: COc1cc(O)c2c(c1)/C=C/C[C@H](O)[C@H](O)C(=O)/C=C\C[C@H](C)OC2=O
Activity: Toxic
//
Sample Smiles: C=CC(=O)Nc1ccccc1Oc1nc(Nc2ccc(N3CCN(C)CC3)cc2)ncc1Cl
Activity: Toxic

Continue with the next compound.
Query: Request the reported Activity associated with `CCN1CCN(Cc2ccc(NC(=O)c3ccc(C)c(Oc4ccnc5[nH]ccc45)c3)cc2C(F)(F)F)CC1`
Result: Non-Toxic

====

# Assay System: Mitogen-activated protein kinase kinase kinase 7 (Homo sapiens)
# Sequence (whole entry): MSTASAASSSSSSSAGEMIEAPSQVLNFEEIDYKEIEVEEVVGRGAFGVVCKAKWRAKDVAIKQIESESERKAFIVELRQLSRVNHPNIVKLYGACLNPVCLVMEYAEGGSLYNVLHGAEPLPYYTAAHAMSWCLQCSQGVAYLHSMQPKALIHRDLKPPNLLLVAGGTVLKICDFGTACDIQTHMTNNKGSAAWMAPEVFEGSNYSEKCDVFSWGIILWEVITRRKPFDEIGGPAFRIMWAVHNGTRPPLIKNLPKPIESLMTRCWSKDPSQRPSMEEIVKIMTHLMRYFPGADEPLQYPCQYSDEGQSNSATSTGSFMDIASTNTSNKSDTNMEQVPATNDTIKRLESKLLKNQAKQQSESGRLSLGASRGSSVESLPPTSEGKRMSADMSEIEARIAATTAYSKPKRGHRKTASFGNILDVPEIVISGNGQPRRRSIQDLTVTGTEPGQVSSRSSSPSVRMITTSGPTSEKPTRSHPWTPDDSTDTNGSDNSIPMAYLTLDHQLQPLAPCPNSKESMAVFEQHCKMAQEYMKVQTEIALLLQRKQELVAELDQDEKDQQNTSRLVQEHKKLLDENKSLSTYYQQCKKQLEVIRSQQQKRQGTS
# Measurement Description: Inhibition of TAK1 in RA patient-derived synovial fibroblasts assessed as inhibition of IL-1alpha-induced cytokine secretion at 3 uM preincubated for 3 hrs followed by IL-1alpha stimulation measured after 18 hrs by sandwich immunoassay
Calls of active or inactive are those of the source. The calls are words filed in the database; no cut-off is given here.
The categories you may choose from are T = active, F = inactive

Sample Smiles: CCC(=O)Nc1ccccc1Oc1nc(Nc2ccc(N3CCN(C)CC3)cc2)ncc1Cl
Assay System: Mitogen-activated protein kinase kinase kinase 7 (Homo sapiens)
Class Assignment: F
//
Sample Smiles: CCC(=O)Nc1ccccc1Oc1nc(Nc2cnn(CCOC)c2)ncc1Cl
Assay System: Mitogen-activated protein kinase kinase kinase 7 (Homo sapiens)
Class Assignment: F
//
Sample Smiles: C=CC(=O)Nc1ccccc1Oc1nc(Nc2cnn(CCOC)c2)ncc1Cl
Assay System: Mitogen-activated protein kinase kinase kinase 7 (Homo sapiens)
Class Assignment: T

Attention now shifts to the item below.
Query: Kindly provide the recorded test outcome for the following compound: `C=CC(=O)Nc1ccccc1Oc1nc(Nc2ccc(N3CCN(C)CC3)cc2)ncc1Cl`
Result: T

====

# Assay System: Mitogen-activated protein kinase kinase kinase 7 (Homo sapiens)
# Sequence (whole entry): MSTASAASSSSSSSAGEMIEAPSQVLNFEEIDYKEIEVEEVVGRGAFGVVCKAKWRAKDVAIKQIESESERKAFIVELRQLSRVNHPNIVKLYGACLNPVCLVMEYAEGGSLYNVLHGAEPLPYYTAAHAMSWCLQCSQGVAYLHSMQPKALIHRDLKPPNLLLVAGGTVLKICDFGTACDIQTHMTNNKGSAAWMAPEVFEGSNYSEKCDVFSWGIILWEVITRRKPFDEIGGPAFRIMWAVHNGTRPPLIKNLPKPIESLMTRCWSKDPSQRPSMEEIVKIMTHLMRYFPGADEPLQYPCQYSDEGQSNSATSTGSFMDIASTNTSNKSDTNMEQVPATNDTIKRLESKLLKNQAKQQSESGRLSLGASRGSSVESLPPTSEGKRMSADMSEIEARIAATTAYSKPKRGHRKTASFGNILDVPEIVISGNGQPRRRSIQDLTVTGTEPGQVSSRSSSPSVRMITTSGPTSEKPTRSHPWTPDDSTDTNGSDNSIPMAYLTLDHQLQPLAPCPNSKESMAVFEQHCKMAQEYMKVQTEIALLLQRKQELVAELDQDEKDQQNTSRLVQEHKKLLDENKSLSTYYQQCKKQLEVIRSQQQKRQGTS
# Measurement Description: Inhibition of biotin-labeled N-(2-(2-(2-(2-(4-(4-((4-((2-Acrylamidophenyl)amino)-5-chloropyrimidin-2-yl)amino)phenyl)piperazin-1-yl)ethoxy)ethoxy)ethoxy)ethyl)-5-((3aS,4S,6aR)-2-oxohexahydro-1H-thieno[3,4-d]imidazol-4-yl)pentanamide probe binding to TAK1 in human NCI-H358 cells at 10 uM after 6 hrs by immunoblot based competitive pull down assay
# Assay type: cell-based
Activity calls are given as the source filed them. The rule behind the calls is not given here.
The categories you may choose from are active, inactive

See these solved cases before continuing.
Sample Smiles: CCC(=O)Nc1ccccc1Oc1nc(Nc2cnn(CCOC)c2)ncc1Cl
Class Assignment: inactive
//
Sample Smiles: CCC(=O)Nc1ccccc1Nc1nc(Nc2ccc(N3CCN(C)CC3)cc2)ncc1Cl
Class Assignment: inactive
//
Sample Smiles: CN1CCN(c2ccc(Nc3ncc(Cl)c(Nc4ccccc4NC(=O)CCl)n3)cc2)CC1
Class Assignment: active
//
Sample Smiles: C=CC(=O)Nc1ccccc1Oc1nc(Nc2cnn(CCOC)c2)ncc1Cl
Class Assignment: active
//
Sample Smiles: C=CC(=O)Nc1ccccc1Oc1nc(Nc2ccc(N3CCN(C)CC3)cc2)ncc1Cl
Class Assignment: active

Query: Kindly provide the recorded test outcome for the following molecule: `C=CC(=O)Nc1ccccc1Oc1nc(Nc2cnn(C(F)F)c2)ncc1Cl`
Result: active

Query: Kindly provide the recorded test outcome for the following molecule: `CCC(=O)Nc1ccccc1Oc1nc(Nc2ccc(N3CCN(C)CC3)cc2)ncc1Cl`
Result: inactive

Query: Kindly provide the recorded test outcome for the following molecule: `C=CC(=O)Oc1ccccc1Nc1nc(Nc2cccc(N3CCOCC3)c2)ncc1Cl`
Result: active

====

# Assay System: Mitogen-activated protein kinase kinase kinase 7 (Homo sapiens, UniProt O43318)
# Measurement Description: Inhibition of TAK1 (unknown origin) after 60 mins by biochemical assay
Experimental Readout: pIC50
FYI, pIC50 means -log10 of a concentration in mol per litre.

Query: Request the reported pIC50 associated with `C=CC(=O)Nc1ccccc1Nc1nc(Nc2ccc(N3CCN(CCOCCOCCOCCNC(=O)CCCC[C@@H]4SC[C@@H]5NC(=O)N[C@@H]54)CC3)cc2)ncc1Cl`
Result: 7.48

# credit: ChEMBL document CHEMBL4118021
